Value source: patent US12295396B2

Molecular target: hT2R54 (Homo sapiens, UniProt P59534)
Construct: expressed in transfected cells; it overexpresses a promiscuous G protein
Sequence (P59534 whole entry): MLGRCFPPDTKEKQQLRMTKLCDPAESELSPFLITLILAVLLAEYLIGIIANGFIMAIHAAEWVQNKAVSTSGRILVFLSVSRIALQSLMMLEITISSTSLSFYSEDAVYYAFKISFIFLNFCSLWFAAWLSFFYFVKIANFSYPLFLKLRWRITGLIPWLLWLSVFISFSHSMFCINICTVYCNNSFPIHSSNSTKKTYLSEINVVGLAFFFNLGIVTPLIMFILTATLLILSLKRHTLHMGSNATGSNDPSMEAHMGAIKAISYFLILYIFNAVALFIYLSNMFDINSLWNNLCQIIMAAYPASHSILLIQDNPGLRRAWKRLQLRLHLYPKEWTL
Assay: Cell-based assay for measuring hT2R54 inhibition (FLIPR calcium, Fluo4AM, acetaminophen as bitter agonist)
Conditions: Table 2; cells stably expressing hT2R54 and a promiscuous G protein; read-out: hT2R54 IC50
pIC50: −log10 of the molar value.
Kindly return 1 (yes) if reported pIC50 is no lower than 7; return 0 (no) if it is lower.

Worked examples, 5 molecules total:
CCCOC(=O)N1CCN(CC(=O)Nc2cc3c(cc2C(C)=O)OCO3)CC1 [compound 3]: 1 (yes)
CC(=O)c1cc2c(cc1NC(=O)CN1CCN(C(=O)c3ncc[nH]3)CC1)OCO2 [compound 301]: 1 (yes)
COc1cc2c(cc1NC(=O)CN1CCN(C(=O)c3cccc(C#N)c3)CC1)OCO2 [compound 382]: 0 (no)
CC(=O)c1cc2c(cc1NC(=O)CN1CCN(C(=O)c3cccc(O)c3)CC1)OCO2 [compound 38]: 1 (yes)
CC(=O)c1cc2c(cc1NC(=O)CN1CCN(C(=O)c3cc(C)on3)CC1)OCO2 [compound 300]: 1 (yes)

Continue with the molecule presented below.
INPUT: Hello, I need to know if CCCC(=O)N1CCN(CC(=O)Nc2cc3c(cc2C(=O)OC)OCO3)CC1 [compound 349] has measured pIC50 not below 7. Thanks!
OUTPUT: 0 (no)
